List of pIC50 tested on Cytochrome P450 3A4 (Homo sapiens, UniProt P08684).
Sequence (P08684 whole entry): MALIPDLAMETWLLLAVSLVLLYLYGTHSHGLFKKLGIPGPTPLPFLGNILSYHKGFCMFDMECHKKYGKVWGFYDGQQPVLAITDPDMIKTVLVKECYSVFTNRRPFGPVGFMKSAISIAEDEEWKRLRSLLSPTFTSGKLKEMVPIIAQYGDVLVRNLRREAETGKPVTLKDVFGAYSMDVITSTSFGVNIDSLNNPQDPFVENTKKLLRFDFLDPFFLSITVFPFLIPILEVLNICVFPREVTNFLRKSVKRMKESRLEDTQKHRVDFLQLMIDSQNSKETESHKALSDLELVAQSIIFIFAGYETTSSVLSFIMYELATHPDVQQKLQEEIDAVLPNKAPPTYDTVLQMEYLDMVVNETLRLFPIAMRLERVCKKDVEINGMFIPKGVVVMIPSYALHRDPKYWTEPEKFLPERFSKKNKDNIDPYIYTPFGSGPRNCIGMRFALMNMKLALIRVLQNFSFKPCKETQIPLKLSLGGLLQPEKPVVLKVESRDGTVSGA
One number for each entry, as −log10 of the molar value.

Example cases with answers are listed next.
[
  {
    "compound": "COc1c(-c2ccc(O)cc2)oc2cc(O)cc(O)c2c1=O [ISOKAEMPFERIDE]",
    "pIC50": 4.44
  },
  {
    "compound": "CCCCC/C=C/C(=O)CCc1ccc(O)c(OC)c1",
    "pIC50": 4.11
  },
  {
    "compound": "C/C1=C\\CC[C@@]2(C)O[C@@H]2CC(C)(C)/C=C/C1=O [ZERUMBONE EPOXIDE]",
    "pIC50": 4.32
  },
  {
    "compound": "C/C1=C\\CC(C)(C)/C=C/C(=O)/C(C)=C/CC1",
    "pIC50": 4.66
  },
  {
    "compound": "C/C1=C\\CC(C)(C)/C=C/C(=O)/C(C)=C/[C@H](O)C1",
    "pIC50": 4.45
  },
  {
    "compound": "CC(=O)O[C@@H]1[C@@H](O)[C@H](C)O[C@@H](Oc2c(-c3ccc(O)cc3)oc3cc(O)cc(O)c3c2=O)[C@@H]1OC(C)=O",
    "pIC50": 4.25
  }
]

Here's the next entry for you.
Return reported pIC50; argument: CC(=O)O[C@@H]1[C@@H](OC(C)=O)[C@@H](O)[C@H](Oc2c(-c3ccc(O)cc3)oc3cc(O)cc(O)c3c2=O)O[C@H]1C 4.69
